# assay system: T1, Recombinant Human DLL4 (delta-like protein 4) (human, UniProt Q9NR61 27-524)
# T1 construct: Bought recombinant human DLL4 (R&D Systems Cat#1506-D4/CF); also called rHuman DLL4
# protocol notes: ECL (MSD) binding assay, immobilised DLL4, 10 nM Fab;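 also: fab binding read as electrochemiluminescence via a TAG-labelled detection antibody, 1 h incubations at 20 °C, antigen signal compared with each well's blank, ratio of at least 4 scored as binder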
observed property: ECL Signal [10 nM Fab]
Just the number, please, no unit after it.

Request: Fill in: ECL Signal [10 nM Fab] of Fab VH5-51_IGHD5-18*01>3_IGHJ4*01 G100K/G104T & V3-4_IGLJ1*01 V91S (Fab, V domains shown, Fab; expressed with CH1 (His and Flag tags) and lambda CL from the expression plasmids; also called H:KT & V91S) VH: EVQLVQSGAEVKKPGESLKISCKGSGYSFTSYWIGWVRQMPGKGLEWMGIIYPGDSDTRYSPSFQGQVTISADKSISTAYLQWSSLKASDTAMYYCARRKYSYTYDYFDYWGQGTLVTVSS VL: QTVVTQEPSFSVSPGGTVTLTCGLSSGSVSTSYYPSWYQQTPGQAPRTLIYSTNTRSSGVPDRFSGSILGNKAALTITGAQADDESDYYCSLYMGSGISYVFGTGTKVTVL is ___
Response: 32100

Request: Fill in: ECL Signal [10 nM Fab] of Fab VH5-51_IGHD5-18*01>3_IGHJ4*01 G100K/G104T & V3-4_IGLJ1*01 S96G (Fab, V domains shown, Fab; expressed with CH1 (His and Flag tags) and lambda CL from the expression plasmids; also called H:KT & S96G) VH: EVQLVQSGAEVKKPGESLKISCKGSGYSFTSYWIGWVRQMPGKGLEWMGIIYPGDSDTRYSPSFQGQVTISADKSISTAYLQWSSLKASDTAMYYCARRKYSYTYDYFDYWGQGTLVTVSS VL: QTVVTQEPSFSVSPGGTVTLTCGLSSGSVSTSYYPSWYQQTPGQAPRTLIYSTNTRSSGVPDRFSGSILGNKAALTITGAQADDESDYYCVLYMGGGISYVFGTGTKVTVL is ___
Response: 40400

Request: Fill in: ECL Signal [10 nM Fab] of Fab VH5-51_IGHD5-18*01>3_IGHJ4*01 G100K/G104T & V3-4_IGLJ1*01 M94T (Fab, V domains shown, Fab; expressed with CH1 (His and Flag tags) and lambda CL from the expression plasmids; also called H:KT & M94T) VH: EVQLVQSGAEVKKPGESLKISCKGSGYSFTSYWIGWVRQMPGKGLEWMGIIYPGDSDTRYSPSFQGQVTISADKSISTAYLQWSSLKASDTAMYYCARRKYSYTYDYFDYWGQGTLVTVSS VL: QTVVTQEPSFSVSPGGTVTLTCGLSSGSVSTSYYPSWYQQTPGQAPRTLIYSTNTRSSGVPDRFSGSILGNKAALTITGAQADDESDYYCVLYTGSGISYVFGTGTKVTVL is ___
Response: 43000

Request: Fill in: ECL Signal [10 nM Fab] of Fab VH5-51_IGHD5-18*01>3_IGHJ4*01 G100K/G104T & V3-4_IGLJ1*01 M94R (Fab, V domains shown, Fab; expressed with CH1 (His and Flag tags) and lambda CL from the expression plasmids; also called H:KT & M94R) VH: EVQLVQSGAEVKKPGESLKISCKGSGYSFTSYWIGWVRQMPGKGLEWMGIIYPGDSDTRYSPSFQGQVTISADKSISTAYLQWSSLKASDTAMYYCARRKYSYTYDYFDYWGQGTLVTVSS VL: QTVVTQEPSFSVSPGGTVTLTCGLSSGSVSTSYYPSWYQQTPGQAPRTLIYSTNTRSSGVPDRFSGSILGNKAALTITGAQADDESDYYCVLYRGSGISYVFGTGTKVTVL is ___
Response: 77800

Request: Fill in: ECL Signal [10 nM Fab] of Fab VH5-51_IGHD5-18*01>3_IGHJ4*01 G100K/G104T & V3-4_IGLJ1*01 S96W (Fab, V domains shown, Fab; expressed with CH1 (His and Flag tags) and lambda CL from the expression plasmids; also called H:KT & S96W) VH: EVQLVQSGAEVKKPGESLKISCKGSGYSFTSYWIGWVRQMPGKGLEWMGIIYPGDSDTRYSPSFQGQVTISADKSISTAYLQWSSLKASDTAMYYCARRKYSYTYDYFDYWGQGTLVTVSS VL: QTVVTQEPSFSVSPGGTVTLTCGLSSGSVSTSYYPSWYQQTPGQAPRTLIYSTNTRSSGVPDRFSGSILGNKAALTITGAQADDESDYYCVLYMGWGISYVFGTGTKVTVL is ___
Response: 52300
